Give Dmax for every item shown.
MEASURED ON: BRD9 (Homo sapiens)
Sequence (Q9H8M2 1-597): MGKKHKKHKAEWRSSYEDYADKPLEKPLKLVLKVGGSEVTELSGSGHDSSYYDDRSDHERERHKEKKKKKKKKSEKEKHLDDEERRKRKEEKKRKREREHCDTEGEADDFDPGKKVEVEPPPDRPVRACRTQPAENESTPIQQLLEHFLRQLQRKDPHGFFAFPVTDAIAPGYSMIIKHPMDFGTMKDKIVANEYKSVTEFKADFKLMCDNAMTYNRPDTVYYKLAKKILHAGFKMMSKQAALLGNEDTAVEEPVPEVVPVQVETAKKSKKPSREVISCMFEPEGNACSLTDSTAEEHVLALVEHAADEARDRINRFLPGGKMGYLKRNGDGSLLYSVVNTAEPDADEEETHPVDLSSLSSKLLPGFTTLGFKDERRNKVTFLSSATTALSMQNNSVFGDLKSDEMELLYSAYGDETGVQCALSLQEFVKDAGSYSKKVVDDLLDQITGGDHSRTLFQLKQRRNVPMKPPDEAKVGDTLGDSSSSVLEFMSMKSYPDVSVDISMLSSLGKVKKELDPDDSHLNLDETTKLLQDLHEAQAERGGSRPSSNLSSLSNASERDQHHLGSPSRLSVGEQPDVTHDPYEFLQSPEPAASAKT
EXPERIMENTAL DETAILS: BRD9 degradation, HiBiT-BRD9 KI HEK293 (LgBiT) cells, NanoGlo Lytic Endpoint assay (Assay Protocol 1)
Assay type: cell-based
EXPERIMENTAL PARAMETERS: HEK293; Table 5; assay protocol 1; read-out: BRD9 Dmax (%)

Input: Given the compound `COc1cc(-c2cn(C)c(=O)c(C)c2C)cc(OC)c1CN1CCN(C(=O)/C(C#N)=C/C(C)(C)C)CC1` , write its reported Dmax.
Output: 40 to 70%

Input: Given the compound COc1cc(-c2cn(C)c(=O)c(C)c2C)cc(OC)c1CN1CC2CC1CN2C(=O)/C(C#N)=C/c1nccs1 (mixture of isomers) , write its reported Dmax.
Output: 40 to 70%

Input: Given the compound COc1cc(-c2cn(C)c(=O)c(C)c2C)cc(OC)c1CN1CC2CC1CN2C(=O)/C(C#N)=C/C(C)(C)C (mixture of isomers) , write its reported Dmax.
Output: 70 to 75%

----------
MEASURED ON: BRD9 (Homo sapiens)
EXPERIMENTAL DETAILS: BRD9 degradation, HiBiT-BRD9 KI HEK293 (LgBiT) cells, NanoGlo Lytic Endpoint assay (Assay Protocol 1)
Type: cell-based
EXPERIMENTAL PARAMETERS: HEK293; Assay protocol 1; BRD9 degradation; read-out: Dmax
Protocol: HiBiT-BRD9 KI HEK293 (LgBiT) Cells (Promega CS3023412) were seeded at 8000 cells per well (38 μL) in sterile white bottom 384 well plates (Invitrogen 164610 or Greiner 781080) and incubated overnight at 37° C. with 5% CO2. The next day, compounds were prepared at 1000× final concentration in DMSO and diluted 1:100 in media (DMEM PAN Biotech P04-03550+10% FBS ATCC 302025). […]
Give Dmax for every item shown.

Input: Given the molecule COc1cc(-c2cn(C)c(=O)c(C)c2C)cc(OC)c1CN1CCN(Cc2cccc(C3CCCN3C(=O)/C(C#N)=C/c3nc(C(F)(F)F)cs3)c2)CC1 (centres unmarked) [Compound B56] , write its reported Dmax.
Output: > 75%

Input: Given the molecule COc1cc(-c2cn(C)c(=O)c(C)c2C)cc(OC)c1CN1CCN(Cc2cccc3c2CCN(C(=O)/C(C#N)=C/C2CC(F)(F)C2)C3C)CC1 (mixture of isomers) [Compound B1] , write its reported Dmax.
Output: 40 to 70%

Input: Given the molecule COc1ccnc(/C=C(\C#N)C(=O)N2CCc3c(CN4CCN(Cc5c(OC)cc(-c6cn(C)c(=O)c(C)c6C)cc5OC)CC4)cccc3C2C)c1 (mixture of isomers) [Compound B52] , write its reported Dmax.
Output: 70 to 75%

Input: Given the molecule COc1cc(-c2cn(C)c(=O)c(C)c2C)cc(OC)c1CN1CC2CCC(C1)N2Cc1cccc2c1CCN(C(=O)/C(C#N)=C/C(C)(C)C)C2C (mixture of isomers) [Compound B3] , write its reported Dmax.
Output: > 75%

Input: Given the molecule COc1cc(-c2cn(C)c(=O)c(C)c2C)cc(OC)c1CN1CCN(Cc2cccc3c2CCN(C(=O)/C(C#N)=C/c2cc(C)ccn2)C3C)CC1 (mixture of isomers) [Compound B19] , write its reported Dmax.
Output: 40 to 70%
